system: A549; assay: NCI tumour cell line growth inhibition, 48 h
Activity calls are given as the source filed them. Rule as the data show it: active = GI50 up to about 1.1 µM and inactive = higher.
I would appreciate it if you answered using one of these outcomes: YES = active, NO = inactive

**Q:** Status in this test for CSc1ccc(C(=C=C=C(c2ccc(SC)s2)c2ccc(SC)s2)c2ccc(SC)s2)s1 ?
**A:** NO

**Q:** Assay outcome for CC(=O)OC(/C=C1/C=CC(=O)O1)COC(=O)c1ccccc1 (stereo unspecified) [ACETYLMELODORINOL] : what was it?
**A:** NO

**Q:** What outcome does the record of this test show for O=CCCCC(Sc1ccccc1)Sc1ccccc1 ?
**A:** NO

**Q:** Per the assay record, what outcome was assigned to C=CCn1c(-c2cc(C(C)(C)C)c(O)c(C(C)(C)C)c2)cs/c1=N\C(P(=O)(O)O)P(=O)(O)O ?
**A:** NO

**Q:** Record lookup: outcome of this test for COc1ccc(-c2cc(-c3ccccc3)[nH]c(=S)c2C#N)cc1 ?
**A:** NO

**Q:** # lookup: test call for C=C1COC(O)(C2OCOC(C3CC(=O)NC(=O)C3)C2O)C1C (stereo unspecified)
**A:** YES

**Q:** How did this test come out for CC(C)N(O)C(=N)c1ccccc1 ?
**A:** NO

**Q:** Each compound tested received a call. Report the one for O=C(NCCc1ccccc1)c1c(O)nc2ccccc2c1O .
**A:** NO

**Q:** Outcome logged for O=c1c2cc(Cl)ccc2n2nnc3ccc(NCCNCCO)c1c32 in this assay:
**A:** YES

**Q:** State the result this test recorded for O=C(NCCNCCO)c1cccc2ccc(-c3ccccc3)nc12 .
**A:** NO

**Q:** What outcome does the record of this test show for c1ccc2c3nc(C4CCCC4)nc-3c(NC3CCCC3)[nH]c2c1 ?
**A:** NO

* * *

test system: UACC-62; test: NCI tumour cell line growth inhibition, 48 h
Activity calls are given as the source filed them. No stated cut-off is given here; in the data, active = GI50 up to about 1.1 µM and inactive = higher.
Entry note: the call must match one of active, inactive

**Q:** Assay outcome for CCCC(=O)OCC1OC(n2cc(F)c(=O)[nH]c2=O)CC1OC(=O)CCC (stereo not given) : what was it?
**A:** active

**Q:** Dear colleague, could you share the recorded outcome for COC(CNC(=O)C(C)NC(=O)CCc1ccccc1)OC (stereo not given) when you have a moment?
**A:** inactive

**Q:** Outcome logged for CN(Cc1cnc2nc(N)nc(N)c2n1)c1ccc(C(=O)NC(CCS(=O)(=O)O)C(=O)O)cc1 (stereo not given) in this assay:
**A:** active

**Q:** Record request — test call for CN1CCN(c2c(Cl)cc(Cl)c3[nH]c4ccccc4c(=O)c23)CC1
**A:** inactive

**Q:** Short answer needed: outcome of this test for c1ccc2c3c([nH]c2c1)C1(CCCCC1)c1c([nH]c2ccccc12)C31CCCCC1 ?
**A:** inactive

**Q:** What call does the record list for CC(=O)Oc1ccc(/C=C/C(=O)OCCCOC(=O)/C=C/c2ccc(OC(C)=O)c(OC(C)=O)c2)cc1OC(C)=O ?
**A:** inactive

**Q:** For CN(C)CCCn1c2ccccc2c2cnccc21 , which call appears in the assay record?
**A:** inactive

**Q:** Test call, this molecule: O=P(c1ccccc1)(c1ccccc1)C1CC=C2CCCCCC2C1 (stereo not given)
**A:** inactive

**Q:** Entry Oc1cc(-c2cccc(OC(F)(F)F)c2)nc2ccc(N3CCCC3)cc12 : call = ?
**A:** active

**Q:** Answer briefly: the call reported for COC(C)(C)/C=C/c1[nH]c2ccccc2c1CC(=O)NCCc1cn(C(c2ccccc2)(c2ccccc2)c2ccccc2)cn1 in this assay.
**A:** inactive

* * *

system: UACC-62; assay: NCI tumour cell line growth inhibition, 48 h
Calls of active or inactive are those of the source. Rule as the data show it: active = GI50 up to about 1.1 µM and inactive = higher. Where a SMILES comes first, the peptide text is derived from it. The star is where a group is joined. Boc = CC(C)(C)OC(=O)*
Permitted responses: true = active, false = inactive

**Q:** I'd appreciate the recorded outcome for CC(C)CCCC(C)[C@H]1CC[C@H]2n3c(nc4ccccc43)CCC[C@]12C (some centres undefined) from this test.
**A:** false

**Q:** Call for entry CC(C)Nc1[nH]c(C(=O)c2ccccc2)c(N)c1C(=S)Nc1ccccc1 :
**A:** false

**Q:** Could you kindly confirm the outcome this assay logged for COc1nc(N)nc2c1n(C)c[n+]2C ?
**A:** false

**Q:** Look up the recorded call for O=C1c2ccccc2C(=O)C1C(c1ccc([N+](=O)[O-])cc1)C1C(=O)c2ccccc2C1=O in this test.
**A:** false

**Q:** How did this test come out for Cn1c2ccccc2c2c(=O)[nH]c(=O)[nH]c21 ?
**A:** false

**Q:** Kindly provide the recorded test outcome for the following compound: COc1ccc2c(c1)[C@@]13CCCC[C@H]1[C@@H](C2)N(C)CC3=O
**A:** false

**Q:** I'd appreciate the recorded outcome for CC(=O)OC1C2CCC3CC2C2(SCCS2)C31 (centres undefined) from this test.
**A:** false

**Q:** Test call for this compound, please: N#CCCC1(CCC#N)CCc2ccccc2C1=O
**A:** false

**Q:** Fill in: this test's call for O=C(CSc1nnc(-c2ccc(/N=C\c3ccc(Cl)cc3)cc2)o1)Nc1ccccc1[N+](=O)[O-] is ___
**A:** false

**Q:** Write down the call the test reported for this compound. Item: Cc1nc2ccccc2c(=O)[nH]1
**A:** false

**Q:** Status in this test for CC(=O)OC(/C=C1/C=CC(=O)O1)COC(=O)c1ccccc1 (centres undefined) ?
**A:** false

**Q:** Dear all, I need the recorded test outcome for O=C(O)[C@H]1NC[C@H]2C(Br)=NO[C@@H]12 , thank you.
**A:** false

**Q:** Record request — test call for CC(C)(C)OC(=O)NCC(=O)NCC(=O)NCC(=O)NCC(=O)O (Boc-GGGG-OH)
**A:** false

**Q:** What is the recorded call for this compound in the test? CC(C)OC(=O)C(NC(=O)C(CC(=O)OCc1ccccc1)NC(=O)OCc1ccccc1)NC(=O)C1C(C)(C)CCC1(C)C (centres undefined)
**A:** false

**Q:** I would be grateful if you could indicate the recorded call for NNC(=O)Nc1cccnc1 .
**A:** false

**Q:** Name the outcome recorded for COc1ccc2nc3ccccc3c(NCCN(C)CCCl)c2c1 in the assay.
**A:** true

**Q:** Would you mind telling me which call this test gave CCOC(=O)CC[C@H](NC(=O)c1nc[nH]c1[N+](=O)[O-])C(=O)OCC ?
**A:** false

**Q:** Record request — test call for C/C(=N\NC(=O)CC#N)C(CN1CCCCC1)C(c1ccccc1)c1c(O)c2ccccc2oc1=O (centres undefined)
**A:** false

**Q:** For this compound, state the assay outcome: COC(=O)C(Cc1ccccc1)NC(=O)C(CCC(=O)OCc1ccccc1)NC(=O)OC(C)(C)C (centres undefined)
**A:** false

**Q:** Dear colleague, could you share the recorded outcome for C=CCCCC12CCCc3cccc(c31)NC2=O (centres undefined) when you have a moment?
**A:** false

**Q:** // param item: Clc1ccc(-c2nnc(-c3c(Cl)c(Cl)c(Cl)c(Cl)c3-c3nc4ccccc4[nH]3)o2)cc1 ; yields the recorded call
**A:** false

**Q:** Recorded test call requested for CCC(=O)Nc1cccc(/N=C/c2ccc(OC(=O)/C=C\c3ccccc3)cc2)c1
**A:** false

**Q:** In this assay, the call recorded for COc1c(-c2nc3ccc(N4CCN(C)CC4)nc3[nH]2)cc(OC)c2c1nc(COC(C)=O)n2C was what?
**A:** false

**Q:** Each compound tested received a call. Report the one for CS(=O)(=O)N(CCC#N)c1ccc(/C=C2\N=C(c3ccccc3Cl)OC2=O)cc1 .
**A:** false

**Q:** Please indicate how the test categorized Clc1cc2nc(C3CCCCO3)[nH]c2cc1Cl (centres undefined) .
**A:** false

**Q:** Query: recorded result category for N#CC12CC=C(c3ccccc3)N=C1NC(c1ccccc1)=CC2 (centres undefined) in this test
**A:** false

**Q:** Per the assay record, what outcome was assigned to CC1CC[C@]2(C(=O)O)CCC3(C)C(=CCC4[C@@]5(C)CC[C@H](OS(=O)(=O)c6ccccc6)C(C)(C)C5CC[C@]43C)[C@@H]2[C@H]1C (some centres undefined) ?
**A:** false

**Q:** GET /call?item= CC(=O)CC(=O)N1CCOC1=O returns the recorded outcome of this test.
**A:** false

**Q:** Which outcome did this test record for the compound Nc1ccn(C2OC(COP(=O)(O)Oc3ccccc3)C(O)C2O)c(=O)n1 (centres undefined) ?
**A:** false

**Q:** Called result for COc1ccccc1/C=C1\CCC(CN2CCOCC2)C1=O (centres undefined)
**A:** false

**Q:** Fill in: this test's call for C=C1C(=O)CC2C(=O)C(C)(O)CC/C=C(\C)C(=O)CC12 (centres undefined) is ___
**A:** false

**Q:** What did the test return for CCOC(=O)/N=c1\ss/c(=N\C(=S)N(C)C)n1-c1ccccc1 ?
**A:** false

**Q:** Per the records of this test, what outcome belongs to CN(C)c1n/c(=N/Cc2ccco2)ss1 ?
**A:** false

**Q:** Could you please tell me the result logged for COC(=O)c1ccccc1/C=C1\Cc2c(ccc3c2CCC3)C1=O in this assay?
**A:** false

**Q:** Could you please tell me the result logged for CCC(=O)OC1CCn2c1nc1c2C(=O)C(C)=C(N2CC2)C1=O (centres undefined) in this assay?
**A:** true

**Q:** Hi, sorry to bother you, what did the test record for Cc1ccsc1C(=S)Nc1ccc(Cl)c(C(=O)OC(C(C)C)C(C)C)c1 ?
**A:** false

**Q:** Hi, sorry to bother you, what did the test record for O=C1CSC2=NCC3(NN12)c1ccccc1-c1ccccc13 ?
**A:** false

**Q:** Hi, sorry to bother you, what did the test record for C[n+]1cccc2c(=O)c3ccccc3oc21 ?
**A:** false

**Q:** Called result for O=C1CCCC1CN1CCCC1 (centres undefined)
**A:** false

**Q:** Name the outcome recorded for CN(C)C(=S)N/N=C(\C(=N/NC(=S)N(C)C)c1ccccn1)c1ccccn1 in the assay.
**A:** false

**Q:** Which outcome was entered for the compound CC1CC(C#N)=C2NCCCCN2C1=O (centres undefined) in this test?
**A:** false

**Q:** How did this test come out for CCc1n[nH]c(=O)n1N1C(=O)C2CC=CCC2C1=O (centres undefined) ?
**A:** false

**Q:** I would be grateful if you could indicate the recorded call for COc1ccc(N2C(=O)C(=O)N(C)C2=O)c2ccccc12 .
**A:** false

**Q:** Which outcome was assigned to O=C(Cc1ccc([N+](=O)[O-])cc1)OCC#CCOC(=O)Cc1ccc([N+](=O)[O-])cc1 in this test?
**A:** false
